- assay: endothelial E-selectin expression blockers – imaging, HUVEC, immunofluorescence, MLSMR starter and 10KST1 sets, primary screen (AID 487);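 also: 100% = median nuclei count of all wells on the same plate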
- conditionDescription: HUVEC TNFalpha-induced E-selectin immunofluorescence imaging, at 2 µM; measured here: cell number, toxicity
observedProperty: nuclei count (%)

[[record]]
smilesstring = "Cc1cccc(N2CCN(Cc3c(C)n(C)n(-c4ccccc4)c3=O)CC2)c1C"
observedproperty = "nuclei count"
datavalue = 124

[[record]]
smilesstring = "COc1ccc(COC(=O)c2n[nH]c3ccccc23)cc1F"
observedproperty = "nuclei count"
datavalue = 107

[[record]]
smilesstring = "COc1ccc(Br)cc1-c1noc(-c2ccccc2)n1"
observedproperty = "nuclei count"
datavalue = 109

[[record]]
smilesstring = "Cc1cc(C(F)(F)F)c2c(C)nn(CCc3nn[nH]n3)c2n1"
observedproperty = "nuclei count"
datavalue = 117

[[record]]
smilesstring = "O=C(CCn1c(=O)c2sccc2n(CC(=O)NCc2ccco2)c1=O)NCc1ccccc1"
observedproperty = "nuclei count"
datavalue = 111

[[record]]
smilesstring = "Cc1ccc(NC(=O)c2ccco2)c(NC(=O)CN2C(=O)c3ccccc3C2=O)c1"
observedproperty = "nuclei count"
datavalue = 155

[[record]]
smilesstring = "Cc1sc2nc(SCC(=O)NCCO)n(C)c(=O)c2c1C"
observedproperty = "nuclei count"
datavalue = 112

[[record]]
smilesstring = "Cc1ccc(C(=O)OCC(=O)c2ccc(Cl)s2)s1"
observedproperty = "nuclei count"
datavalue = 121

[[record]]
smilesstring = "O=C(Nc1ccc(CN2CCOCC2)cc1)c1cc2ccccc2oc1=O"
observedproperty = "nuclei count"
datavalue = 146

[[record]]
smilesstring = "COCCn1c(=O)[nH]c2cc(C(=O)N3CCN(Cc4ccc5c(c4)OCO5)CC3)ccc2c1=O"
observedproperty = "nuclei count"
datavalue = 115

[[record]]
smilesstring = "Cc1ccc(NC(=O)CCC(=O)OCC(F)(F)C(F)F)cc1"
observedproperty = "nuclei count"
datavalue = 91.8


###

- assay: inhibitors of TNFa-induced NFkB p65 translocation, primary screen, imaging, HUVEC, MLSMR starter and 10KST1 sets (AID 438);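 also: compound added about 3h40 before a 20 min TNFalpha stimulation; signal is the nuclear over cytoplasmic p65 intensity ratio per well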
- conditionDescription: HUVEC TNFa-induced p65 nuclear translocation; at 2 µM, stronger effect = higher value, 0% TNFa-plus-vehicle, 100% no-TNFa wells
observedProperty: inhibition (%)

[[record]]
molecule = "O=c1/c(=C/c2ccco2)sc2nc(-c3ccccc3Br)nn12"
observedproperty = "inhibition"
datavalue = 0.2

[[record]]
molecule = "CCOC(=O)c1cc(-c2ccco2)nc2c1c(C)nn2CCC#N"
observedproperty = "inhibition"
datavalue = -10.8

[[record]]
molecule = "CCOc1ccccc1C1N(c2ccc(F)cc2)C(=O)C2CCCN21 (stereo not drawn)"
observedproperty = "inhibition"
datavalue = -0.3

[[record]]
molecule = "COc1ccccc1NC(=O)C1CC(=O)N(c2ccc(F)cc2)C1 (stereo not drawn)"
observedproperty = "inhibition"
datavalue = 4.5

[[record]]
molecule = "COc1ccc(-c2cn3c(C)c(C(=O)Nc4cc(NC(C)=O)ccc4OC)sc3n2)cc1"
observedproperty = "inhibition"
datavalue = 7.3

[[record]]
molecule = "c1ccc(CCc2nc(-c3cccnc3)no2)cc1"
observedproperty = "inhibition"
datavalue = 3.1

[[record]]
molecule = "CN(C)c1ccc(C=Nc2ccc(N(C)C)cc2)cc1"
observedproperty = "inhibition"
datavalue = 3.4

[[record]]
molecule = "CCn1cc(C2=NOC(C(=O)Nc3c(C)nn(Cc4ccc(F)cc4)c3C)C2)c(C)n1 (stereo not drawn)"
observedproperty = "inhibition"
datavalue = -12.2

[[record]]
molecule = "Cc1cc(NC(=O)CSc2nnc(COc3cccc(C)c3C)n2Cc2ccco2)no1"
observedproperty = "inhibition"
datavalue = -8.7

[[record]]
molecule = "COc1ccc(S(=O)(=O)NCCOc2ccccc2)cc1OC"
observedproperty = "inhibition"
datavalue = -3.3

[[record]]
molecule = "O=C(CCn1c(=O)c2ccccc2n(CC(=O)NCCC2=CCCCC2)c1=O)NCc1ccco1"
observedproperty = "inhibition"
datavalue = -10.9

[[record]]
molecule = "Cc1cc(C)n(Cc2nc3ccccc3n2C)n1"
observedproperty = "inhibition"
datavalue = 7

[[record]]
molecule = "O=C(NCc1nc2ccccc2[nH]1)c1ccco1"
observedproperty = "inhibition"
datavalue = 0.8

[[record]]
molecule = "CC(=O)c1cccc(NC(=O)N2C3CCC2CC(O)(c2cccnc2)C3)c1 (stereo not drawn)"
observedproperty = "inhibition"
datavalue = 9.7

[[record]]
molecule = "COc1ccc(-c2noc(CCCOc3ccccc3)n2)cc1OC"
observedproperty = "inhibition"
datavalue = 1.5

[[record]]
molecule = "COc1ccccc1-n1c(SCC(=O)NC(C)(C)C)nnc1-c1ccco1"
observedproperty = "inhibition"
datavalue = -13.1

[[record]]
molecule = "O=C(Nc1ccc2c(c1)OCO2)c1nn(-c2ccccc2)c(=O)c2ccccc12"
observedproperty = "inhibition"
datavalue = 7.1

[[record]]
molecule = "O=C(c1ccccc1)N1CCN(CC2CC=CCC2)CC1 (stereo not drawn)"
observedproperty = "inhibition"
datavalue = -9.9

[[record]]
molecule = "CC(=O)N1c2c(cc(Br)cc2S(=O)(=O)NCC2COc3ccccc3O2)CC1C (stereo not drawn)"
observedproperty = "inhibition"
datavalue = -0.5

[[record]]
molecule = "O=C(Nc1ccc(S(=O)(=O)N2CCc3ccccc32)cc1)c1ccc2c(c1)OCO2"
observedproperty = "inhibition"
datavalue = -10

[[record]]
molecule = "CS(=O)(=O)N1CCN(C(=O)c2ccc(-c3ccccc3)cc2)CC1"
observedproperty = "inhibition"
datavalue = 4

[[record]]
molecule = "COC(=O)c1[nH]c2ccc(C)cc2c1NC(=O)CN1CCC(C)CC1"
observedproperty = "inhibition"
datavalue = -0.4

[[record]]
molecule = "O=C(c1ccc(CNc2c(N3CCCC3)c(=O)c2=O)cc1)N1CCc2ccccc2C1"
observedproperty = "inhibition"
datavalue = 2.3

